# ASSAY_PROCEDURE: Half life in Wistar rat at 10 mg/kg, po
# Type: ADME, organism-based
# Design: dose 10 mg/kg, route oral
# DETAILS: in vivo
EXPERIMENTAL_ENDPOINT: half-life (h)

Recorded half-life, per entry:
- C[C@@H](CN1CC(C)(C)c2cc(F)ccc21)NC(=O)[C@H](CC1CCCCC1)Nc1nc2cccc(Cl)c2o1: 5.1
- C[C@@H](CN1CCc2cc(F)ccc21)NC(=O)[C@H](CC1CCCCC1)Nc1nc2cccc(Cl)c2o1: 1.1

[A] COc1ccc(NCCNC(=O)[C@H](CC2CCCCC2)Nc2nc3ccccc3o2)cc1
[B] CCOC(=O)C[C@@H](CN1CCc2cc(F)ccc21)NC(=O)[C@H](CC1CCCCC1)Nc1nc2ccc(Cl)cc2o1
Problem: Between A and B , which one has the lower reported half-life value? Answer = label.
Result: B
(B: 1 h, A: 5.3 h)

====

# Tested on: Rattus norvegicus
# ASSAY_PROCEDURE: Plasma concentration in Wistar rat at 10 mg/kg, po
# Format: ADME, organism-based
# Parameters: dose 10 mg/kg, route oral
# DETAILS: in vivo
EXPERIMENTAL_ENDPOINT: concentration

Problem: # get_value(readout= concentration, system= Rattus norvegicus) for O=C(O)C[C@@H](CN1CCc2cc(F)ccc21)NC(=O)[C@H](CC1CCCCC1)Nc1nc2ccc(Cl)cc2o1
Result: > 1000 nM

====

# ASSAY_PROCEDURE: Clearance in Wistar rat at 3 mg/kg, iv
# Format: ADME, organism-based
# Set-up: dose 3 mg/kg, route intravenous
# DETAILS: in vivo
EXPERIMENTAL_ENDPOINT: clearance (mL/min/kg)

Record excerpt, results attached:
- O=C(O)C[C@@H](CN1CCc2cc(F)ccc21)NC(=O)[C@H](CC1CCCCC1)Nc1nc2ccc(Cl)cc2o1: 23.2
- C[C@@H](CN1CC(C)(C)c2cc(F)ccc21)NC(=O)[C@H](CC1CCCCC1)Nc1nc2cccc(Cl)c2o1: 10.1

[a] COc1ccc(NCCNC(=O)[C@H](CC2CCCCC2)Nc2nc3ccccc3o2)cc1
[b] C[C@@H](CN1CCc2cc(F)ccc21)NC(=O)[C@H](CC1CCCCC1)Nc1nc2cccc(Cl)c2o1
Problem: Choose between a and b : whose measured clearance value is numerically larger? Answer format: the label of the selected item.
Result: b

====

# ASSAY_PROCEDURE: AUC in Wistar rat at 10 mg/kg, po
# Type: ADME, organism-based
# Parameters: dose 10 mg/kg, route oral
# DETAILS: plasma
EXPERIMENTAL_ENDPOINT: AUC (ng·h/mL)

- C[C@@H](CN1CC(C)(C)c2cc(F)ccc21)NC(=O)[C@H](CC1CCCCC1)Nc1nc2cccc(Cl)c2o1: 2400
- COc1ccc(NCCNC(=O)[C@H](CC2CCCCC2)Nc2nc3ccccc3o2)cc1: 15
- C[C@@H](CN1CCc2cc(F)ccc21)NC(=O)[C@H](CC1CCCCC1)Nc1nc2cccc(Cl)c2o1: 1080

[A] CCOC(=O)C[C@@H](CN1CCc2cc(F)ccc21)NC(=O)[C@H](CC1CCCCC1)Nc1nc2ccc(Cl)cc2o1
[B] C[C@@H](CN1c2ccc(F)cc2CC1(C)C)NC(=O)[C@H](CC1CCCCC1)Nc1nc2cccc(Cl)c2o1
Problem: Compare reported AUC values for A and B . Which is lower? Reply briefly: the label of your chosen item.
Result: B
(B: 900 ng·h/mL, A: 1580 ng·h/mL)

The values you see were collected from ChEMBL document CHEMBL1146936.
